Where these numbers come from: PubChem BioAssay

Assay: splicing luciferase reporter signal modulators, primary screen, spliceosome inhibition project, cell-based, HEK293, splice +/- reporter (AID 1101);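 note: HEK293 cells carrying a splicing-competent luciferase reporter gene; test concentration not given here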
Conditions: luminescence, 24 h, higher = more signal, called active from +8 up or from −8 down
Examples of molecules with documented z-score follow.
quantity: z-score

molecule | valueObserved
CC(C)C(=C=CC[C@@H](O)c1ccc(OCCO)cc1)C[C@@H](O)COCc1ccccc1 | -1.97
C=CCC(OC(C)=O)[C@@H]1[C@@H](N(Cc2cc3ccccc3o2)C(=O)c2cccc3ccccc23)c2cc(OCCCO)ccc2N1C(=O)c1ccc(-c2ccccc2)cc1 (some centres undefined) | -1.82
C=CCOC(=O)[C@H]1[C@@H]2C(=O)O[C@@H](c3ccccc3)[C@@H](c3ccccc3)N2[C@@H](c2ccc(OCCOC(=O)[C@H]3C[C@H]4C(=O)N[C@@H](CCCCNC(C)=O)C(=O)N4[C@H]3c3ccc(O)cc3)cc2)[C@]12C(=O)Nc1ccc(I)cc12 | -0.0027
CNS(=O)(=O)c1ccc(C)cc1 | -1.07

====

Experiment: basal RPMI8226 viability, no added stimulus, profiling panel, cell-based, calcein-AM fluorescence, 48 h, PK04 Diversity Set (AID 1166);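 note: cells grown under basal conditions without added stimulus; test concentration not given here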
Conditions: RPMI8226 myeloma viability, higher = more signal

molecule | z-score
COc1cc(COC(C)=O)ccc1OC(C)=O | -1.49
CC(C)OC(=O)C=C1C[C@@H](c2ccccn2)O[C@@H](c2ccccn2)O1 | -1.14
COCC(=C=CC[C@@H](O)c1cccc(OCCO)c1)C[C@@H](O)c1ccccn1 | -0.51
CCCCCN1CC=CC23O[C@@H]4/C=C\CCC(C)OC(=O)C4[C@H]2C(=O)N(C(C)CO)[C@@H]3C1=O (stereo partly drawn) | 0.311
COc1ccccc1CN1C(=O)c2ccccc2[C@@H](C(=O)NC2CC2)[C@@H]1c1ccc(CO)cc1 | -0.376
CO[C@H]1O[C@H](CO)[C@@H](OC(=O)Nc2ccc(Oc3ccccc3)cc2)[C@H](OC(=O)Nc2ccc3c(c2)OCO3)[C@H]1OC(=O)Nc1ccc2c(c1)OCO2 | -0.594
CC(C)=CCCC(C)=CC(O)C1C=CC2C(=O)N(C)C(=O)C2N1Nc1ccccc1 (stereo not drawn) | -4.09
CCOC(=O)C[C@H]1[C@H](OC(=O)c2ccc(C(=O)c3ccccc3)cc2)[C@@H](NC(=O)CC(C)C)c2cc(OCCCO)ccc2N1C(=O)c1ccc2ccccc2n1 | 0.263

====

Examples of molecules with documented composite z-score follow.
Experiment: COS7 lysate on small-molecule microarray, probe aHis, 635 nm (AID 1123);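 note: z-score combines 667nm fluorescence intensity with signal-to-noise per printed compound spot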
Conditions: COS7 cell lysate, fluorescence, higher = more signal
quantity: composite z-score

molecule | valueObserved
C=CC[C@]1(C(=O)NCCCOC)N=C(c2ccc(OCCCO)cc2)O[C@H]1c1ccccc1CN=[N+]=[N-] | 2.59
[N-]=[N+]=NCc1ccccc1C[C@]1(C(=O)N2CCCCC2)N=C(c2ccc(OCCCO)cc2)O[C@H]1c1ccccc1N=[N+]=[N-] | 2.45
C=C(/C(=C/C[C@H](OC(C)=O)c1ccccc1OCCO)c1cnc2ccccc2c1)C(C)C | 0.202
CC[C@@H]1C=C(C(=O)O)[C@H](c2ccc(Br)cc2)N1S(=O)(=O)c1ccc(C)cc1 | 2.01
C=CCN1C(=O)[C@]2(O[C@H](CCn3cc([C@H](O)c4ccccc4)nn3)[C@@H]([Si](C)(C)c3ccc(OC)cc3)[C@@H]2C)c2ccccc21 | -0.011
CC1CC/C=C\[C@H]2OC34C=CCN(Cc5ccccc5)C(=O)[C@H]3N(CCCO)C(=O)[C@@H]4C2C(=O)O1 (some centres not stated) | -0.0465
COCCOC(=O)N1C(=O)[C@@]2(c3ccccc31)[C@H](C(=O)N1CCc3cc(OC)c(OC)cc3C1)[C@H]1C(=O)O[C@H](c3ccccc3)[C@H](c3ccccc3)N1[C@@H]2c1ccc(OCCO)cc1 | 2.59

====

Assay: basal RPMI8226 viability, no added stimulus, profiling panel, cell-based, calcein-AM fluorescence, 48 h, PK04 Diversity Set (AID 1166);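 note: cells grown under basal conditions without added stimulus; test concentration not given here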
Conditions: RPMI8226 myeloma viability, higher = more signal

smilesInput | z-score
[N-]=[N+]=NCc1ccccc1[C@@H]1OC(c2ccc(OCCCO)cc2)=N[C@]1(Cc1ccccc1)C(N)=O | -1.63
COC(=O)C(CC#Cc1ccc2c(c1)[C@]1(C(=O)N2)[C@H](C(=O)Nc2nc3ccccc3s2)[C@H]2C(=O)O[C@H](c3ccccc3)[C@H](c3ccccc3)N2[C@@H]1c1ccccc1OCCO)C(=O)OC | -2.6
O=C1c2ccccc2[C@](Cc2ccccc2I)(C(=O)NCCN2CCOCC2)[C@H](c2ccc(CO)cc2)N1Cc1ccccc1Cl | -1.88

====

Assay: inhibitors of hydroxyurea-induced Chk1 phosphorylation, primary screen, imaging, HeLa, phospho-Chk1 antibody, percent positive cells (AID 1186)
Conditions: hydroxyurea-induced phospho-Chk1 immunofluorescence imaging, higher = more signal
quantity: z-score

molecule | valueObserved
CN1C(=O)C2C=CC(C(O)c3ccc([N+](=O)[O-])cc3)N(N3CCCCC3)C2C1=O (stereo not drawn) | -0.224
COCCOC(=O)N1C(=O)[C@@]2(c3cc(C#CCNC(N)=O)ccc31)[C@H](C(=O)N1CCN(c3ncccn3)CC1)[C@H]1C(=O)O[C@H](c3ccccc3)[C@H](c3ccccc3)N1[C@@H]2c1ccc(OCCO)cc1 | 0.138
C=CCOC(=O)[C@H]1[C@@H]2C(=O)O[C@@H](c3ccccc3)[C@@H](c3ccccc3)N2[C@@H](c2ccc(OCCOC(=O)[C@H]3C[C@H]4C(=O)N[C@@H](CCCCNC(C)=O)C(=O)N4[C@H]3c3cccc(OCCO)c3)cc2)[C@]12C(=O)Nc1ccccc12 | -0.843
CC1CC/C=C\[C@H]2OC34C=CCN(C(C)(C)C)C(=O)[C@H]3N(C(C)CO)C(=O)[C@@H]4C2C(=O)O1 (stereo partly drawn) | 0.714
COCCOC(=O)N1C(=O)[C@@]2(c3cc(C#CCNC(N)=O)ccc31)[C@H](C(=O)Nc1nc3ccccc3s1)[C@H]1C(=O)O[C@H](c3ccccc3)[C@H](c3ccccc3)N1[C@@H]2c1ccc(OCCO)cc1 | -0.0719
COCCCNC(=O)[C@]1(CCC(=O)OC(C)(C)C)N=C(c2ccc(OCCCO)cc2)O[C@@H]1c1ccccc1CN=[N+]=[N-] | -0.113
C=CCOC(=O)[C@H]1[C@@H]2C(=O)O[C@@H](c3ccccc3)[C@@H](c3ccccc3)N2[C@@H](c2ccc(OCCOC(=O)[C@@H]3C[C@@H]4C(=O)N[C@@H](CC(C)C)C(=O)N4[C@@H]3c3ccc(O)cc3)cc2)[C@]12C(=O)Nc1ccccc12 | 0.659
CCCC[C@@H]1C[C@H]1[C@@H](NC(=O)c1ccco1)c1ccccc1C(F)(F)F | 0.445
CCCC[C@H]1OB(O)C[C@H]2C1=C(COC)Cn1c(=O)n(-c3ccccc3)c(=O)n12 | -0.503
CCCCC(CC)C(O)C1C=CC2C(=O)N(Cc3ccccc3)C(=O)C2N1n1cnnc1 (stereo not drawn) | 0.419
CCCCN1CC=CC23O[C@@H]4C=CCCOC(=O)C4[C@H]2C(=O)N(CCCCCCO)[C@@H]3C1=O (stereo partly drawn) | 0.809
CC(C)C(=C=CC[C@@H](O)c1ccc(OCCO)cc1)C[C@@H](O)COCc1ccccc1 | -1.27
COC(=O)[C@]1(CCC(=O)OC(C)(C)C)N=C(c2ccc(OCCCO)cc2)O[C@@H]1c1ccccc1CN=[N+]=[N-] | 0.121

====

Test: binders from COS7 lysate, DM2A8 probe, primary screen, torsin A project, cell lysate, small-molecule microarray, fluorescence 635/667 (AID 1065)
Details: higher = more signal, COS7 lysate expressing mutant human TOR1A
Each entry gets not satisfied if its composite z-score stays under 0.1, and satisfied if its composite z-score is 0.1 or above.

compound | categoryLabel
CC(C)C(=C=CC[C@@H](O)c1ccc(OCCO)cc1)C[C@@H](O)c1ccccn1 | satisfied
CCCC[C@H]1OB(O)C[C@H]2C1=C(COC)Cn1c(=O)n(-c3ccccc3)c(=O)n12 | satisfied
CC#CC(=O)Oc1ccccc1C=CC(=O)OCC | not satisfied
C=CC[C@]1(C(=O)NCc2ccccc2)N=C(c2ccc(OCCCO)cc2)O[C@H]1c1ccccc1N=[N+]=[N-] | satisfied
N#Cc1ccc(NN2C(C(O)C(c3ccccc3)c3ccccc3)C=CC3C(=O)N(c4ccccc4)C(=O)C32)cc1 (stereo not given) | satisfied

====

Examples of molecules with documented z-score follow.
Test: yeast growth modulation, basal conditions, primary screen, YJM789 clinical isolate, OD600, 24 h (AID 1089);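 note: growth of clinical yeast isolate S. cerevisiae YJM 789 seeded 1000 cells per well; test concentration not given here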
Conditions: S. cerevisiae YJM789 growth, higher = more signal, called active from +8 up or from −8 down
The source made the active and inactive calls.

molecule | z-score
CN1C(=O)C2C=CC(C(O)c3ccco3)N(Nc3ccccc3)C2C1=O (stereo not drawn) | 0.312 (inactive)
CC(C)C(=C=CC[C@@H](O)c1ccc(OCCO)cc1)C[C@@H](O)c1ccccn1 | -1 (inactive)
CC(C)N1C(=O)[C@@]2(Cc3ccccc31)c1ccccc1C(=O)N(Cc1ccccc1Cl)[C@H]2c1ccc(CO)cc1 | -1.05 (inactive)
COc1ccccc1CN1C(=O)c2ccccc2[C@@H](C(=O)NC2CC2)[C@@H]1c1ccc(CO)cc1 | 0.827 (inactive)
COCCOC(=O)N1C(=O)[C@@]2(c3cc(C#CCC(C(=O)OC)C(=O)OC)ccc31)[C@H](C(=O)Nc1nc3ccccc3s1)[C@H]1C(=O)O[C@H](c3ccccc3)[C@H](c3ccccc3)N1[C@@H]2c1ccccc1OCCO | 2.48 (inactive)
CC(C)OC(=O)C=C1C[C@@H](c2ccccn2)O[C@@H](c2ccccn2)O1 | -0.0723 (inactive)
CC(C)C(O)C1C=CC2C(=O)NC(=O)C2N1Nc1ccc(Cl)cc1Cl (stereo not drawn) | 0.376 (inactive)
CN(C)CCCCCCNC(=O)[C@H]1C[C@H]2C(=O)N[C@@H](CCCCN)C(=O)N2[C@H]1c1cccc(OCCO)c1 | -0.871 (inactive)
